# procedure.details: Transepithelial transport of theaflavins across Caco-2 cell monolayers, with or without efflux transporter inhibitors
# Assay type: in vitro ADME, Human
# test.conditions: human, Caco-2, with 100 μM CsA (P-gp inhibitor and substrate), secretory transport, 2 h incubation, + 100 μM CsA (P-gp inhibitor and substrate)
Listed here: items and their measured Papp B→A at 2 h, 200 μM.
Note: unit ×10⁻⁶ cm/s is implicit; provide only the numeric part.

Worked examples follow.
compound	Papp B→A at 2 h, 200 μM (×10⁻⁶ cm/s)
O=C(O[C@@H]1Cc2c(O)cc(O)cc2O[C@@H]1c1cc(O)c(=O)c2c(O)c(O)cc([C@H]3Oc4cc(O)cc(O)c4C[C@H]3OC(=O)c3cc(O)c(O)c(O)c3)c2c1)c1cc(O)c(O)c(O)c1 [TFDG, theaflavin-3, 3’-digallate]	0.632
O=c1c(O)cc([C@H]2Oc3cc(O)cc(O)c3C[C@H]2O)cc2c([C@H]3Oc4cc(O)cc(O)c4C[C@H]3O)cc(O)c(O)c12	0.348
O=C(O[C@@H]1Cc2c(O)cc(O)cc2O[C@@H]1c1cc(O)c(O)c2c(=O)c(O)cc([C@H]3Oc4cc(O)cc(O)c4C[C@H]3O)cc12)c1cc(O)c(O)c(O)c1 [TF3’G, theaflavin-3’-gallate]	0.084

Consider the additional compound presented here.
Query block: Quickly give me recorded Papp B→A at 2 h, 200 μM for O=C(O[C@@H]1Cc2c(O)cc(O)cc2O[C@@H]1c1cc(O)c(=O)c2c(O)c(O)cc([C@H]3Oc4cc(O)cc(O)c4C[C@H]3O)c2c1)c1cc(O)c(O)c(O)c1 [TF3G, theaflavin-3-gallate]
Result block: 0.146

---

# procedure.details: Transepithelial transport of theaflavins across Caco-2 cell monolayers, with or without efflux transporter inhibitors
# Type: in vitro ADME, Human
# test.conditions: human, Caco-2, with 100 μM CsA (P-gp inhibitor and substrate), 2 h incubation, + 100 μM CsA (P-gp inhibitor and substrate)
reported.metric: efflux ratio at 2 h, 200 μM
Please give the numeric answer without any surrounding text.

molecule	efflux ratio at 2 h, 200 μM
O=C(O[C@@H]1Cc2c(O)cc(O)cc2O[C@@H]1c1cc(O)c(=O)c2c(O)c(O)cc([C@H]3Oc4cc(O)cc(O)c4C[C@H]3OC(=O)c3cc(O)c(O)c(O)c3)c2c1)c1cc(O)c(O)c(O)c1 [TFDG, theaflavin-3, 3’-digallate]	1.58

Query block: Quickly give me recorded efflux ratio at 2 h, 200 μM for `O=c1c(O)cc([C@H]2Oc3cc(O)cc(O)c3C[C@H]2O)cc2c([C@H]3Oc4cc(O)cc(O)c4C[C@H]3O)cc(O)c(O)c12`
Result block: 0.62

Query block: Quickly give me recorded efflux ratio at 2 h, 200 μM for O=C(O[C@@H]1Cc2c(O)cc(O)cc2O[C@@H]1c1cc(O)c(O)c2c(=O)c(O)cc([C@H]3Oc4cc(O)cc(O)c4C[C@H]3O)cc12)c1cc(O)c(O)c(O)c1 [TF3’G, theaflavin-3’-gallate]
Result block: 1.55

Query block: Quickly give me recorded efflux ratio at 2 h, 200 μM for O=C(O[C@@H]1Cc2c(O)cc(O)cc2O[C@@H]1c1cc(O)c(=O)c2c(O)c(O)cc([C@H]3Oc4cc(O)cc(O)c4C[C@H]3O)c2c1)c1cc(O)c(O)c(O)c1 [TF3G, theaflavin-3-gallate]
Result block: 1.13

---

Listed here: items and their measured pIC50.
# Test system: Caco-2 cells
# procedure.details: Cytotoxicity study by CCK-8 method
# Assay type: cell-based, Human
# test.conditions: Homo sapiens, 24 h, Ctrl (no inhibitor)
Give only the number. pIC50 is defined as minus log10 of concentration in molar units.

compound	pIC50
O=C(O[C@@H]1Cc2c(O)cc(O)cc2O[C@@H]1c1cc(O)c(=O)c2c(O)c(O)cc([C@H]3Oc4cc(O)cc(O)c4C[C@H]3OC(=O)c3cc(O)c(O)c(O)c3)c2c1)c1cc(O)c(O)c(O)c1 [TFDG, theaflavin-3, 3’-digallate]	3.24

Query block: Quickly give me recorded pIC50 for O=C(O[C@@H]1Cc2c(O)cc(O)cc2O[C@@H]1c1cc(O)c(O)c2c(=O)c(O)cc([C@H]3Oc4cc(O)cc(O)c4C[C@H]3O)cc12)c1cc(O)c(O)c(O)c1 [TF3’G, theaflavin-3’-gallate]
Result block: 3.28

Query block: Quickly give me recorded pIC50 for O=C(O[C@@H]1Cc2c(O)cc(O)cc2O[C@@H]1c1cc(O)c(=O)c2c(O)c(O)cc([C@H]3Oc4cc(O)cc(O)c4C[C@H]3O)c2c1)c1cc(O)c(O)c(O)c1 [TF3G, theaflavin-3-gallate]
Result block: 3.19

Query block: Quickly give me recorded pIC50 for `O=c1c(O)cc([C@H]2Oc3cc(O)cc(O)c3C[C@H]2O)cc2c([C@H]3Oc4cc(O)cc(O)c4C[C@H]3O)cc(O)c(O)c12`
Result block: 3.17

---

# procedure.details: Transepithelial transport of theaflavins across Caco-2 cell monolayers, with or without efflux transporter inhibitors
# Type: in vitro ADME, Human
# test.conditions: human, Caco-2, Caco-2 monolayers, apical to basolateral, after 2 h incubation; read-out: recovery of theaflavins in absorptive transport
Listed here: items and their measured recovery at 2 h, 200 μM.
Include the unit right after the number.

Worked examples follow.
compound	reported.metric	recorded.measurement
O=c1c(O)cc([C@H]2Oc3cc(O)cc(O)c3C[C@H]2O)cc2c([C@H]3Oc4cc(O)cc(O)c4C[C@H]3O)cc(O)c(O)c12 [TF, theaflavin]	recovery at 2 h, 200 μM	39.8%
O=C(O[C@@H]1Cc2c(O)cc(O)cc2O[C@@H]1c1cc(O)c(=O)c2c(O)c(O)cc([C@H]3Oc4cc(O)cc(O)c4C[C@H]3O)c2c1)c1cc(O)c(O)c(O)c1 [TF3G, theaflavin-3-gallate]	recovery at 2 h, 200 μM	44.2%
O=C(O[C@@H]1Cc2c(O)cc(O)cc2O[C@@H]1c1cc(O)c(O)c2c(=O)c(O)cc([C@H]3Oc4cc(O)cc(O)c4C[C@H]3O)cc12)c1cc(O)c(O)c(O)c1 [TF3’G, theaflavin-3’-gallate]	recovery at 2 h, 200 μM	31.8%

Consider the additional compound presented here.
Query block: Quickly give me recorded recovery at 2 h, 200 μM for O=C(O[C@@H]1Cc2c(O)cc(O)cc2O[C@@H]1c1cc(O)c(=O)c2c(O)c(O)cc([C@H]3Oc4cc(O)cc(O)c4C[C@H]3OC(=O)c3cc(O)c(O)c(O)c3)c2c1)c1cc(O)c(O)c(O)c1 [TFDG, theaflavin-3, 3’-digallate]
Result block: 32.7%

---

Listed here: items and their measured Papp B→A at 2 h, 200 μM.
# procedure.details: Transepithelial transport of theaflavins across Caco-2 cell monolayers, with or without efflux transporter inhibitors
# Assay type: in vitro ADME, Human
# test.conditions: human, Caco-2, with 10 μM FTC (BCRP inhibitor), secretory transport, 2 h incubation, + 10 μM FTC (BCRP inhibitor)
Include the unit right after the number.

Worked examples follow.
compound	recorded.measurement
O=C(O[C@@H]1Cc2c(O)cc(O)cc2O[C@@H]1c1cc(O)c(=O)c2c(O)c(O)cc([C@H]3Oc4cc(O)cc(O)c4C[C@H]3O)c2c1)c1cc(O)c(O)c(O)c1 [TF3G, theaflavin-3-gallate]	0.153 ×10⁻⁶ cm/s
O=c1c(O)cc([C@H]2Oc3cc(O)cc(O)c3C[C@H]2O)cc2c([C@H]3Oc4cc(O)cc(O)c4C[C@H]3O)cc(O)c(O)c12	0.324 ×10⁻⁶ cm/s
O=C(O[C@@H]1Cc2c(O)cc(O)cc2O[C@@H]1c1cc(O)c(=O)c2c(O)c(O)cc([C@H]3Oc4cc(O)cc(O)c4C[C@H]3OC(=O)c3cc(O)c(O)c(O)c3)c2c1)c1cc(O)c(O)c(O)c1 [TFDG, theaflavin-3, 3’-digallate]	0.552 ×10⁻⁶ cm/s

Query block: Quickly give me recorded Papp B→A at 2 h, 200 μM for O=C(O[C@@H]1Cc2c(O)cc(O)cc2O[C@@H]1c1cc(O)c(O)c2c(=O)c(O)cc([C@H]3Oc4cc(O)cc(O)c4C[C@H]3O)cc12)c1cc(O)c(O)c(O)c1 [TF3’G, theaflavin-3’-gallate]
Result block: 0.067 ×10⁻⁶ cm/s

---

Listed here: items and their measured Papp A→B at 2 h, 200 μM.
# procedure.details: Transepithelial transport of theaflavins across Caco-2 cell monolayers, with or without efflux transporter inhibitors
# Type: in vitro ADME, Human
# test.conditions: human, Caco-2, with 100 μM CsA (P-gp inhibitor and substrate), absorptive transport, 2 h incubation, + 100 μM CsA (P-gp inhibitor and substrate)
Include the unit right after the number.

Worked examples follow.
compound	Papp A→B at 2 h, 200 μM
O=c1c(O)cc([C@H]2Oc3cc(O)cc(O)c3C[C@H]2O)cc2c([C@H]3Oc4cc(O)cc(O)c4C[C@H]3O)cc(O)c(O)c12 [TF, theaflavin]	0.565 ×10⁻⁶ cm/s
O=C(O[C@@H]1Cc2c(O)cc(O)cc2O[C@@H]1c1cc(O)c(=O)c2c(O)c(O)cc([C@H]3Oc4cc(O)cc(O)c4C[C@H]3O)c2c1)c1cc(O)c(O)c(O)c1 [TF3G, theaflavin-3-gallate]	0.13 ×10⁻⁶ cm/s
O=C(O[C@@H]1Cc2c(O)cc(O)cc2O[C@@H]1c1cc(O)c(=O)c2c(O)c(O)cc([C@H]3Oc4cc(O)cc(O)c4C[C@H]3OC(=O)c3cc(O)c(O)c(O)c3)c2c1)c1cc(O)c(O)c(O)c1 [TFDG, theaflavin-3, 3’-digallate]	0.4 ×10⁻⁶ cm/s

Consider the additional compound presented here.
Query block: Quickly give me recorded Papp A→B at 2 h, 200 μM for O=C(O[C@@H]1Cc2c(O)cc(O)cc2O[C@@H]1c1cc(O)c(O)c2c(=O)c(O)cc([C@H]3Oc4cc(O)cc(O)c4C[C@H]3O)cc12)c1cc(O)c(O)c(O)c1 [TF3’G, theaflavin-3’-gallate]
Result block: 0.054 ×10⁻⁶ cm/s
